All figures here come from patent US9556159B2.

Target: Recombinant human renin (Homo sapiens, UniProt P00797)
Sequence (P00797 67-406): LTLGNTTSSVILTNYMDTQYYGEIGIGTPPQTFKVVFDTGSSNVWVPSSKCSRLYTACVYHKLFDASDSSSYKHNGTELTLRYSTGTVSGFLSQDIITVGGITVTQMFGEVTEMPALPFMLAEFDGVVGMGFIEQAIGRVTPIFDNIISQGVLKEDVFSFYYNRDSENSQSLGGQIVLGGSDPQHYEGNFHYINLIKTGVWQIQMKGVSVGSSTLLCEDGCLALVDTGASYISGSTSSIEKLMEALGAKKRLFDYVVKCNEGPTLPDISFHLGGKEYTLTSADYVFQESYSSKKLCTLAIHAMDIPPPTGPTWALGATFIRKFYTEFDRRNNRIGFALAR
Assay: Inhibitory activity against human renin (fluorogenic peptide substrate)
Format: biochemical
Details: 50% inhibitory concentration (IC50) against human renin, 37° C. for 1 hour
I'd appreciate it if you could supply pIC50 values for the items below.
Numbers only, as −log10 of the molar value.

For each entry beneath this line, provide reported pIC50.
1. CCn1nc([C@@H](C)N(C(=O)[C@H]2CNCCO2)C2CC2)cc1CCCNC(=O)OC
2. COC(=O)NCCCc1cc([C@@H](C)N(C(=O)[C@H]2CNCCO2)C2CC2)cnc1-c1ccccc1

RESULT:
1: 8.68; 2: 8.85

For each entry beneath this line, provide reported pIC50.
1. COCCCCn1nc([C@@H](C)N(C(=O)[C@H]2CNCCO2)C2CC2)cc1-c1ccccn1
2. COCCCn1ncc2c(C)cc([C@@H](C)N(C(=O)[C@H]3CNC[C@@H](COC)O3)C3CC3)nc21

RESULT:
1: 8.85; 2: 8.37
